Taken from patent US20250282866A1.

Would you kindly list Binding Signal (fold over 6E7 Parental antibody) for each of these binders?
Molecular target: T1, human TREM2 (human, UniProt Q9NZC2 19-174, limits assumed)
T1 construct: also called triggering receptor expressed on myeloid cells 2
T1 sequence: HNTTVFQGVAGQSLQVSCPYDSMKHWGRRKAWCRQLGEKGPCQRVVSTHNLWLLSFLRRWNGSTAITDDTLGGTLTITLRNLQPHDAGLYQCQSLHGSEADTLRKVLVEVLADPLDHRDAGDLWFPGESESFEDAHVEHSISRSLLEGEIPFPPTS
Experiment: 1st screen (110 nM or 10 nM)
Kindly provide the numeric value in fold only, without the unit symbol.

Entry under review: V7 (antibody, V domains shown) VH: EVQLVQSGAEVKKPGESLKISCKGSGYSFTSEWIAWVRQMPGKGLEWMGIIYPGDSDTRYSPSFQGQVTISADKSISTAYLQWSSLKASDTAMYFCARQRTFYYDSSDYFDYWGQGTLVTVSS VL: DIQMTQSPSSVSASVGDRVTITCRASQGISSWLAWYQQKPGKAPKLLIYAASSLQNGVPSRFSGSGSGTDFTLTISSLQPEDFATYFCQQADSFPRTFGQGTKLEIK . Reported Binding Signal (fold over 6E7 Parental antibody)?
0.11

Entry under review: V13 (antibody, V domains shown) VH: EVQLVQSGAEVKKPGESLKISCKGSGYSFGSYWIAWVRQMPGKGLEWMGIIYPGDSDTRYSASFQGQVTISADKSISTAYLQWSSLKASDTAMYFCARGRTFYYDSSDYFDYWGQGTLVTVSS VL: DIQMTQSPSSVSASVGDRVTITCRASQGISSWLAWYQQKPGKAPKLLIYAASSLQGGVPSRFSGSGSGTDFTLTISSLQPEDFATYFCQQADSMPRTFGQGTKLEIK . Reported Binding Signal (fold over 6E7 Parental antibody)?
1.31

Entry under review: V54 (antibody, V domains shown) VH: EVQLVQSGAEVKKPGESLKISCKGSGYSFTSQWIAWVRQMPGKGLEWMGIIYPGDSDTRYSPSFQGQVTISADKSISTAYLQWSSLKASDTAMYFCARQRTFYYDSSDYFDYWGQGTLVTVSS VL: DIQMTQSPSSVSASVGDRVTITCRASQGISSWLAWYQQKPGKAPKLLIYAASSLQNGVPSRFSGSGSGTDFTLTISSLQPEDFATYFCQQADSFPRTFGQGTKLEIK . Reported Binding Signal (fold over 6E7 Parental antibody)?
0.55

Entry under review: V60 (antibody, V domains shown) VH: EVQLVQSGAEVKKPGESLKISCKGSGYHFTSYWIAWVRQMPGKGLEWMGIIYPGDSDVRYSPSFQGQVTISADKSISTAYLQWSSLKASDTAMYFCARQRTFYYDSSDYSDYWGQGTLVTVSS VL: DIQMTQSPSSVSASVGDRVTITCRASQGISSWLAWYQQKPGKAPKLLIYAASSLQRGVPSRFSGSGSGTDFTLTISSLQPEDFATYFCGQADSFPRTFGQGTKLEIK . Reported Binding Signal (fold over 6E7 Parental antibody)?
3.26

Entry under review: V63 (antibody, V domains shown) VH: EVQLVQSGAEVKKPGESLKISCKGSGYSFRSYWIAWVRQMPGKGLEWMGIIYPGDSDTRYSPSFQGQVTISADKSISTAYLQWSSLKASDTAMYFCARSRTFYYDSSDYFDYWGQGTLVTVSS VL: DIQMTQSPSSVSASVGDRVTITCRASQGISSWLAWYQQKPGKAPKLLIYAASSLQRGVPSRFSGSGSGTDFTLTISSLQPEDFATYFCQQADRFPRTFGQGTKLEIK . Reported Binding Signal (fold over 6E7 Parental antibody)?
3.76

Entry under review: V78 (antibody, V domains shown) VH: EVQLVQSGAEVKKPGESLKISCKGSGYRFTSYWIAWVRQMPGKGLEWMGIIYPGDSDTRYSPSFQGQVTISADKSISTAYLQWSSLKASDTAMYFCARQRTFYYDSSDYFDYWGQGTLVTVSS VL: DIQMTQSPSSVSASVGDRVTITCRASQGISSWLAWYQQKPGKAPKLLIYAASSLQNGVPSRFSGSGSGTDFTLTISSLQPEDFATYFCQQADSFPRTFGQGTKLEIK . Reported Binding Signal (fold over 6E7 Parental antibody)?
0.86

Entry under review: V55 (antibody, V domains shown) VH: EVQLVQSGAEVKKPGESLKISCKGSGYSFTSYWIAWVRQMPGKGLEWMGIIYPGDSDTIYSPSHQGQVTISADKSISTAYLQWSSLKASDTAMYFCARQRTFYYDSSDYFDYWGQGTLVTVSS VL: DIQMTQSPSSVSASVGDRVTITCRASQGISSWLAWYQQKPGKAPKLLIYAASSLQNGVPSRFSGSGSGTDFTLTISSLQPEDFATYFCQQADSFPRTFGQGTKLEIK . Reported Binding Signal (fold over 6E7 Parental antibody)?
0.24

Entry under review: V5 (antibody, V domains shown) VH: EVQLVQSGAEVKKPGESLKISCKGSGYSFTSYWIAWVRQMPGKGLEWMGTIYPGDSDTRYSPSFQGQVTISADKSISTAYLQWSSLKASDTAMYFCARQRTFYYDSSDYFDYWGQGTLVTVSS VL: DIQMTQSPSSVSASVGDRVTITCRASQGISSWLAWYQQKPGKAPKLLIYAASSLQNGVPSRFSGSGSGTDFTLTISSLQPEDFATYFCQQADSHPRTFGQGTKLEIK . Reported Binding Signal (fold over 6E7 Parental antibody)?
2.73

Entry under review: V48 (antibody, V domains shown) VH: EVQLVQSGAEVKKPGESLKISCKGSGYSFGSYWIAWVRQMPGKGLEWMGIIYPGDSDVRYSPSFQGQVTISADKSISTAYLQWSSLKASDTAMYFCARMRTFYYDSSDYFDYWGQGTLVTVSS VL: DIQMTQSPSSVSASVGDRVTITCRASQGISSWLAWYQQKPGKAPKLLIYAASSLQTGVPSRFSGSGSGTDFTLTISSLQPEDFATYFCQQADSLPRTFGQGTKLEIK . Reported Binding Signal (fold over 6E7 Parental antibody)?
2.42

Entry under review: V87 (antibody, V domains shown) VH: EVQLVQSGAEVKKPGESLKISCKGSGYSFRSYWIAWVRQMPGKGLEWMGIIYPGDSDVRYSPDFQGQVTISADKSISTAYLQWSSLKASDTAMYFCARSRTFYYDSSDYFDYWGQGTLVTVSS VL: DIQMTQSPSSVSASVGDRVTITCRASQGISSWLAWYQQKPGKAPKLLIYAASSLQWGVPSRFSGSGSGTDFTLTISSLQPEDFATYFCQQADSFPRTFGQGTKLEIK . Reported Binding Signal (fold over 6E7 Parental antibody)?
3.84
